- Test system: G-402 (Other Solid Carcinomas)
- method: Bliss excess, mean over the matrix (fraction); higher = more synergy;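 further: after 72 h of two-drug dosing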
reported-property: Bliss excess
// keep it numeric: no unit symbol after the value

Problem: For the compound C=CCn1c(=O)c2cnc(Nc3ccc(N4CCN(C)CC4)cc3)nc2n1-c1cccc(C(C)(C)O)n1 [AZD1775] + C[C@@H]1COCCN1C2=NC(=NC(=C2)C3(CC3)[S@](=N)(=O)C)C4=C5C=CNC5=NC=C4 [AZD6738] (first compound max 1 µM, partner max 10 µM) , give its measured Bliss excess value.
Result: -0.0458

Problem: Check the records and state Bliss excess for C=CCn1c(=O)c2cnc(Nc3ccc(N4CCN(C)CC4)cc3)nc2n1-c1cccc(C(C)(C)O)n1 [AZD1775] + C1CN(CCC1(C(=O)N[C@@H](CCO)C2=CC=C(C=C2)Cl)N)C3=NC=NC4=C3C=CN4 [Capivasertib] (first compound max 3 µM, partner max 3 µM)
Result: -0.0346

Problem: Give the reported Bliss excess for this compound. CC1(C)CCC(CN2CCN(c3ccc(C(=O)NS(=O)(=O)c4ccc(NCC5CCOCC5)c([N+](=O)[O-])c4)c(Oc4cnc5[nH]ccc5c4)c3)CC2)=C(c2ccc(Cl)cc2)C1 [Venetoclax] + CN(C)CCCOc1ccc(-c2ccc3ncc4c(c3c2)n(C2CCOCC2)c(=O)n4C)cn1 [AZD0156] (first compound max 1 µM, 7x7, partner max 1 µM)
Result: -0.0774

Problem: Note Bliss excess for the compound shown: Cc1cc2ncnn2cc1Nc1ncc2c(n1)n(C1CCOCC1)c(=O)n2C [AZD7648] + CN(C)CCCOc1ccc(-c2ccc3ncc4c(c3c2)n(C2CCOCC2)c(=O)n4C)cn1 [AZD0156] (first compound max 10 µM, 7x7, partner max 1 µM)
Result: -0.0271

---

- Test system: EB2 (Burkitt's Lymphoma)
- method: Bliss excess, mean over the matrix (fraction); higher = more synergy
Label Satisfied when Bliss excess >= 0.07; otherwise Not satisfied.

Problem: # bool: Bliss excess of Cc1cc2ncnn2cc1Nc1ncc2c(n1)n(C1CCOCC1)c(=O)n2C [AZD7648] + CCN(CCO)CCCOc1ccc2c(Nc3cc(CC(=O)Nc4cccc(F)c4)[nH]n3)ncnc2c1 [AZD2811] (first compound max 10 µM, 7x7, partner max 1 µM) >= 0.07
Result: Not satisfied

Problem: Does the compound CC(=O)Nc1cccc(-n2c(=O)n(C3CC3)c(=O)c3c(Nc4ccc(I)cc4F)n(C)c(=O)c(C)c32)c1 [Trametinib] + Cc1nc(-c2cn3c(n2)-c2ccc(-c4cnn(C(C)(C)C(N)=O)c4)cc2OCC3)n(C(C)C)n1 [Taselisib] (first compound max 1 µM, 7x7, partner max 10 µM) have recorded Bliss excess that is 0.07 or more?
Result: Not satisfied

Problem: Is it the case that Cc1c2c(nn1C)CSCc1cc(n(C)n1)CSc1cc(c3ccccc3c1)OCCCc1c(C(=O)O)n(C)c3c-2c(Cl)ccc13 [AZD5991] + C[C@@H](Nc1cc(F)cc(F)c1)c1cc(C(=O)N(C)C)cc2c(=O)cc(N3CCOCC3)oc12 [AZD8186] (first compound max 1 µM, 7x7, partner max 3 µM) has Bliss excess reaching or exceeding 0.07?
Result: Not satisfied

Problem: Identify whether the reported Bliss excess of the following compound is 0.07 or greater: CN(C)CCCOc1ccc(-c2ccc3ncc4c(c3c2)n(C2CCOCC2)c(=O)n4C)cn1 [AZD0156] + C=CCn1c(=O)c2cnc(Nc3ccc(N4CCN(C)CC4)cc3)nc2n1-c1cccc(C(C)(C)O)n1 [AZD1775] (first compound max 1 µM, partner max 1 µM)
Result: Not satisfied

Problem: Record CN(C)CCCOc1ccc(-c2ccc3ncc4c(c3c2)n(C2CCOCC2)c(=O)n4C)cn1 [AZD0156] + O=C(c1cc(Cc2n[nH]c(=O)c3ccccc23)ccc1F)N1CCN(C(=O)C2CC2)CC1 [Olaparib] (first compound max 3 µM, partner max 3 µM) ; criterion: Bliss excess no lower than 0.07. Met?
Result: Satisfied

Problem: Quick check: does CC1(C)CCC(CN2CCN(c3ccc(C(=O)NS(=O)(=O)c4ccc(NCC5CCOCC5)c([N+](=O)[O-])c4)c(Oc4cnc5[nH]ccc5c4)c3)CC2)=C(c2ccc(Cl)cc2)C1 [Venetoclax] + COc1cc(Nc2ncc3c(n2)-c2ccc(Cl)cc2C(c2c(F)cccc2OC)=NC3)ccc1C(=O)O [Alisertib] (first compound max 1 µM, 7x7, partner max 10 µM) have Bliss excess greater than or equal to 0.07?
Result: Satisfied

Problem: Confirm if Bliss excess reported for the compound Cc1cc2ncnn2cc1Nc1ncc2c(n1)n(C1CCOCC1)c(=O)n2C [AZD7648] + O=C(c1cc(Cc2n[nH]c(=O)c3ccccc23)ccc1F)N1CCN(C(=O)C2CC2)CC1 [Olaparib] (first compound max 10 µM, 7x7, partner max 10 µM) is 0.07 or above.
Result: Not satisfied

The reported measurements were obtained from the supplement of paper PMC11061612.
